Hello, the source for this data is patent US20200061026A1, in case you need it.

Please consider the recorded IC50 for CYP 3A4 (Homo sapiens) in what follows.

Recorded results for 2 compounds are shown here.
compound	endpoint-label	readout-value
O=C(CNC(=O)c1ccc(C2=NO[C@](c3cc(Cl)cc(C(F)(F)F)c3)(C(F)(F)F)C2)c2ccccc12)NCC(F)(F)F (racemic) [Afoxolaner, afoxolaner]	IC50	> 50 µM
O=C(CNC(=O)c1ccc(C2=NO[C@@](c3cc(Cl)cc(C(F)(F)F)c3)(C(F)(F)F)C2)c2ccccc12)NCC(F)(F)F [(S)-afoxolaner]	IC50	> 50 µM

Consider the record given below.
# IC50 (compound: O=C(CNC(=O)c1ccc(C2=NO[C@@](c3cc(Cl)cc(Cl)c3)(C(F)(F)F)C2)c2ccccc12)NCC(F)(F)F ) is > 50 µM

###

# assay-text: Hepatocyte stability assay, mouse
# Assay type: in vitro ADME
# assay-context: CD-1, mouse, hepatocytes
endpoint-label: half-life at 1 μM (min)
Give bare numbers, in min.

Measured half-life at 1 μM of O=C(CNC(=O)c1ccc(C2=NO[C@@](c3cc(Cl)cc(Cl)c3)(C(F)(F)F)C2)c2ccccc12)NCC(F)(F)F : 59

###

# measurement-target: hERG channels (Homo sapiens, UniProt Q12809)
# Sequence (Q12809 whole entry): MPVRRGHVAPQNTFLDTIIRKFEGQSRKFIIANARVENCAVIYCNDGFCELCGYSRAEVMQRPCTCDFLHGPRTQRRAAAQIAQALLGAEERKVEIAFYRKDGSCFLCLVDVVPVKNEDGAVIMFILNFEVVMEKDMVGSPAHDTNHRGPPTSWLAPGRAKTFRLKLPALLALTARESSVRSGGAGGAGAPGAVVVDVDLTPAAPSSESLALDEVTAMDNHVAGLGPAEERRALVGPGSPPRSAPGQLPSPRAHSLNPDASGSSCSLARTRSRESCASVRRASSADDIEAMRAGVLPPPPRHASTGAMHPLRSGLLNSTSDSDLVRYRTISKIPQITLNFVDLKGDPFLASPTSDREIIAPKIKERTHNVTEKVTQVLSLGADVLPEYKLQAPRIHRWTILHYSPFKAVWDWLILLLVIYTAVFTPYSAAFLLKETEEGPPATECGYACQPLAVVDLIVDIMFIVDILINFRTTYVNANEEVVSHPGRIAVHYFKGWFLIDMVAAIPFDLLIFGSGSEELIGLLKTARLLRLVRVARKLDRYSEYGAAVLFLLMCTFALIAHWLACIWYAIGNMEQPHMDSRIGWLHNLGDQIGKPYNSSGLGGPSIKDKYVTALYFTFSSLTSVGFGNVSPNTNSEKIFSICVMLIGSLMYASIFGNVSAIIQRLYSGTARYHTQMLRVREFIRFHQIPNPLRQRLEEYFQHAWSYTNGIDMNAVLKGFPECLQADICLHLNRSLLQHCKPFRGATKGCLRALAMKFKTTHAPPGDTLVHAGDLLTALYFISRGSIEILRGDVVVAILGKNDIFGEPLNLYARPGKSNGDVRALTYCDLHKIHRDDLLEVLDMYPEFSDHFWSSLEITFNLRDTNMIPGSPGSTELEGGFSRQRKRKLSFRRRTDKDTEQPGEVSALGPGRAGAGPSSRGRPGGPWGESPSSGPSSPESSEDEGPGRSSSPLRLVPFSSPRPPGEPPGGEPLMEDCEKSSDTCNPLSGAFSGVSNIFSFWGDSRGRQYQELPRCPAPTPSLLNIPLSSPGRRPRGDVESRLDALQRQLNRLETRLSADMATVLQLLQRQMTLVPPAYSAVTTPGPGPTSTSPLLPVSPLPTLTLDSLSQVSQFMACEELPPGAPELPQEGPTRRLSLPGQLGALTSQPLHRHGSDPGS
# assay-text: hERG channel manual patch clamp assay (CHO-K1 cells)
endpoint-label: pIC50
Answers are plain numbers, as −log10 of the molar value.

The compound identified as O=C(CNC(=O)c1ccc(C2=NO[C@@](c3cc(Cl)cc(Cl)c3)(C(F)(F)F)C2)c2ccccc12)NCC(F)(F)F registered its pIC50 at 4.70

###

# assay-text: Further in vitro degradation assay, human primary hepatocytes
# assay-context: human, cryopreserved hepatocytes
endpoint-label: hepatocyte CLint

Input Cc1cc(C2=NO[C@](c3cc(Cl)cc(Cl)c3)(C(F)(F)F)C2)ccc1C(=O)NCC(=O)NCC(F)(F)F [Fluralaner, fluralaner] . Output hepatocyte CLint: < 6.4 µL/min/1e6 cells

###

# assay-text: Solubility at pH 6.8
# Format: physicochemical
# assay-context: pH 6.8, aqueous buffer
endpoint-label: solubility

// recorded solubility for O=C(CNC(=O)c1ccc(C2=NO[C@@](c3cc(Cl)cc(Cl)c3)(C(F)(F)F)C2)c2ccccc12)NCC(F)(F)F : < 1 µM

###

# assay-text: Hepatocyte stability assay, dog
# Format: in vitro ADME
# assay-context: Beagle, hepatocytes; dog (d); 1 μM; read-out: Hepatocyte stability (t½)
endpoint-label: half-life at 1 μM (min)
Answers are plain numbers, in min.

compound O=C(CNC(=O)c1ccc(C2=NO[C@@](c3cc(Cl)cc(C(F)(F)F)c3)(C(F)(F)F)C2)c2ccccc12)NCC(F)(F)F [(S)-afoxolaner] , half-life at 1 μM observed: 32

###

# CYP 2C19 (Homo sapiens, UniProt P33261): IC50 values follow
# Sequence (P33261 whole entry): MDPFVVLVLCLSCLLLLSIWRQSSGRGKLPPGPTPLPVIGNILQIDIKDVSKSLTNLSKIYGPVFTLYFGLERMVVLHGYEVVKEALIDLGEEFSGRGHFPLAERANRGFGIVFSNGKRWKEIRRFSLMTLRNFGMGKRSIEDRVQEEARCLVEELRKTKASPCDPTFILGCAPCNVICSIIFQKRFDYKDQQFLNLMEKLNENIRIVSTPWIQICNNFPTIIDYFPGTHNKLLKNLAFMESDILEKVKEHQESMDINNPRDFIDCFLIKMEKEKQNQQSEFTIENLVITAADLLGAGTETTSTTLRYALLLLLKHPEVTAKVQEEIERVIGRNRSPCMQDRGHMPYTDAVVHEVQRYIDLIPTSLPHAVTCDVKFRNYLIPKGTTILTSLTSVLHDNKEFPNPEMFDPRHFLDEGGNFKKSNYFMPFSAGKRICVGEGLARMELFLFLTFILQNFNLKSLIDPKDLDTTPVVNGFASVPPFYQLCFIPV

Illustrative cases are given below, each with its answer.
compound	IC50
O=C(CNC(=O)c1ccc(C2=NO[C@@](c3cc(Cl)cc(C(F)(F)F)c3)(C(F)(F)F)C2)c2ccccc12)NCC(F)(F)F [(S)-afoxolaner]	1100 nM
O=C(CNC(=O)c1ccc(C2=NO[C@](c3cc(Cl)cc(C(F)(F)F)c3)(C(F)(F)F)C2)c2ccccc12)NCC(F)(F)F (racemic)	3100 nM

Form field IC50 for item O=C(CNC(=O)c1ccc(C2=NO[C@@](c3cc(Cl)cc(Cl)c3)(C(F)(F)F)C2)c2ccccc12)NCC(F)(F)F on CYP 2C19 (Homo sapiens, UniProt P33261): 600 nM

###

# Tested on: Anopheles gambiae Tiassale 13
# assay-text: WHO paper contact assay, Anopheles gambiae Tiassale
# Type: in vivo
# assay-context: papers 0.75% permethrin, 0.05% deltamethrin, 4% DDT, 0.1% bendiocarb, 1.0% fenitrothion, 4% dieldrin
endpoint-label: percentage of survival (%)
Numbers only, in %.

Here's what some known entries look like.
molecule	measurement-target	units	percentage of survival
CC1(C)[C@H](C(=O)O[C@H](C#N)c2cccc(Oc3ccccc3)c2)[C@@H]1C=C(Br)Br	Anopheles gambiae Tiassale 13	%	10
COP(=S)(OC)Oc1ccc([N+](=O)[O-])c(C)c1	Anopheles gambiae Tiassale 13	%	96
ClC1=C(Cl)[C@]2(Cl)[C@@H]3[C@@H]4C[C@@H]([C@H]5O[C@@H]45)[C@@H]3[C@@]1(Cl)C2(Cl)Cl	Anopheles gambiae Tiassale 13	%	21
Clc1ccc(C(c2ccc(Cl)cc2)C(Cl)(Cl)Cl)cc1	Anopheles gambiae Tiassale 13	%	3
CC1(C)C(C=C(Cl)Cl)C1C(=O)OCc1cccc(Oc2ccccc2)c1 (stereo not drawn)	Anopheles gambiae Tiassale 13	%	3

Then this molecule:
Lookup result for CNC(=O)Oc1cccc2c1OC(C)(C)O2 ; measured percentage of survival: 11

###

# assay-text: Further in vitro degradation assay, rat primary hepatocytes
# assay-context: cryopreserved hepatocytes
endpoint-label: half-life

Lab book: half-life of Cc1cc(C2=NO[C@](c3cc(Cl)cc(Cl)c3)(C(F)(F)F)C2)ccc1C(=O)NCC(=O)NCC(F)(F)F noted as > 3.61 h
